method: Cmax in CD rat systemic circulation at 50 mg/kg, po administered via gavage
Format: ADME, organism-based
Parameters: dose 50 mg/kg, route oral
measured-property: Cmax (ng/mL)

[1] C[C@@H](N[C@H]1CCN(c2ccc(C(=O)NCC[N+](C)(C)C)cc2)C1)c1cccc2ccccc12.[Cl-]
[2] C[C@@H](N[C@H]1CCN(c2ccc(S(=O)(=O)NCC(=O)O)cc2)C1)c1cccc2ccccc12
// compare: 1 vs 2 , metric Cmax, want the smaller Please reply using the label of the selected record.
1
(1: 154 ng/mL, 2: 317 ng/mL)

* * *

method: Half-life in Sprague-Dawley rat cecal homogenates at 10 uM by LC-MS/MS analysis
Format: ADME, tissue-based, Caecum
measured-property: half-life at 10 µM (h)

Illustrative cases are given below, each with its answer.
molecule-smiles | half-life at 10 µM [h]
C[C@@H](N[C@H]1CCN(c2ccc(C(=O)N[C@H](CCCCN)C(=O)O)cc2)C1)c1cccc2ccccc12 | 4.3
C[C@@H](N[C@H]1CCN(c2ccc(C(=O)NCCCCNC(CO)(CO)CO)cc2)C1)c1cccc2ccccc12 | 8
C[C@@H](N[C@H]1CCN(c2ccc(S(=O)(=O)NC(=O)CCC(=O)O)cc2)C1)c1cccc2ccccc12 | 10.5
C[C@@H](N[C@H]1CCN(c2ccc(C(=O)N[C@H](CC(=O)O)C(=O)O)cc2)C1)c1cccc2ccccc12 | 9.1

[I] C[C@@H](N[C@H]1CCN(c2ccc(C(=O)NCCS(=O)(=O)O)cc2)C1)c1cccc2ccccc12
[II] C[C@@H](N[C@H]1CCN(c2ccc(C(=O)NCCn3cnc(C(=O)O)c3C(=O)O)cc2)C1)c1cccc2ccccc12
[III] C[C@@H](N[C@H]1CCN(c2ccc(C(=O)NCCNC(CO)(CO)CO)cc2)C1)c1cccc2ccccc12
Could you please sort these 3 entries by half-life at 10 µM from high to low? Labels, requested order.
II, III, I
(II: 7.8 h, III: 3.4 h, I: 0.8 h)

* * *

method: Aqueous solubility of the compound in FESSIF
Format: physicochemical
measured-property: solubility

In one line, give reported solubility of the entry C[C@@H](N[C@H]1CCN(c2ccc(C(=O)NCCCN3CCC(C(=O)O)CC3)cc2)C1)c1cccc2ccccc12 .
> 1000 µg/mL

* * *

method: Aqueous solubility of the compound in FASSIF
Format: physicochemical
measured-property: solubility

In one line, give reported solubility of the entry C[C@@H](N[C@H]1CCN(c2ccc(C(=O)NCCCN3CCC(C(=O)O)CC3)cc2)C1)c1cccc2ccccc12 .
> 1000 µg/mL

* * *

method: Protein binding in CD rat plasma at 10 mg/kg, administered via gavage
Assay type: ADME, organism-based
study-conditions: po, read-out: PPB (converted)
measured-property: fraction unbound
A bare number is all that is needed in reply.

In one line, give reported fraction unbound of the entry C[C@@H](N[C@H]1CCN(c2ccc(C(=O)NCCCN3CCC(C(=O)O)CC3)cc2)C1)c1cccc2ccccc12 .
0.07

* * *

test-system: Extracellular calcium-sensing receptor (Homo sapiens, UniProt P41180)
Sequence (P41180 whole entry): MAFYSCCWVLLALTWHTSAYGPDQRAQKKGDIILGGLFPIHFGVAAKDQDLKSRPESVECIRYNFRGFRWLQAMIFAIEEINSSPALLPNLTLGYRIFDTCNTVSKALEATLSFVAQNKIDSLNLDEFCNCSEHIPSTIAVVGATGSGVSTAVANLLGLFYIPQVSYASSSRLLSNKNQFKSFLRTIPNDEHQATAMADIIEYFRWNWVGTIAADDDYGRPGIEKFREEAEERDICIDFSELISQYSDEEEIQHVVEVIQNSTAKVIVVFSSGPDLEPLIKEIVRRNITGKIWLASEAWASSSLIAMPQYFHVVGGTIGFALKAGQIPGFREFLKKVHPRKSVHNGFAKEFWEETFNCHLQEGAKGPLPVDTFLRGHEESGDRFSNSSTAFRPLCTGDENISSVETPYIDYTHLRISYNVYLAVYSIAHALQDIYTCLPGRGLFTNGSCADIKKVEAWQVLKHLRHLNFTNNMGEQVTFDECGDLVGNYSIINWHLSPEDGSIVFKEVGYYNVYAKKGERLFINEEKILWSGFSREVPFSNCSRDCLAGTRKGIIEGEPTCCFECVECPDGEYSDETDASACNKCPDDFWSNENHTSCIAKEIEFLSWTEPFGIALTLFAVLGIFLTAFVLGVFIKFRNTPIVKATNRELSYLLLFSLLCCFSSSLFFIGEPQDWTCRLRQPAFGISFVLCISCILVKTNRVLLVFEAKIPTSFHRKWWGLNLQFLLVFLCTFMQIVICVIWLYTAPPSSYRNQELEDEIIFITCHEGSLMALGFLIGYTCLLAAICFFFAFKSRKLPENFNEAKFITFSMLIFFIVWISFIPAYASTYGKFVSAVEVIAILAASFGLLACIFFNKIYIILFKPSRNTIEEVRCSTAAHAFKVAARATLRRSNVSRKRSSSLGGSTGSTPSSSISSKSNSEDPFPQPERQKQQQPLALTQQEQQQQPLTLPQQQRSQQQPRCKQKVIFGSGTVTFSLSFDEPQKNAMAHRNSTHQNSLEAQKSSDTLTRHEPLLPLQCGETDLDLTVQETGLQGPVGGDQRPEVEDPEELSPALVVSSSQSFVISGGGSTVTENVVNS
method: Agonist activity at human CaSR expressed in HEK293 cells assessed as increase in intracellular calcium mobilization by fluo-4AM dye based FLIPR assay
Type: functional, cell-based
study-conditions: read-out: pEC50 (converted)
measured-property: EC50 (nM)

molecule-smiles | test-system | measured-property | unit-descriptor | observed-result
C[C@@H](N[C@H]1CCN(c2ccc(C(=O)NCCCCNC(CO)(CO)CO)cc2)C1)c1cccc2ccccc12 | Extracellular calcium-sensing receptor (Homo sapiens, UniProt P41180) | EC50 | nM | 15.8

[P] C[C@@H](N[C@H]1CCN(c2ccc(C(=O)NCCN)cc2)C1)c1cccc2ccccc12
[Q] C[C@@H](N[C@H]1CCN(c2ccc(C(=O)NCC(=O)O)cc2)C1)c1cccc2ccccc12
# returns the entry with the larger EC50; inputs P and Q Please reply using the label of the selected record.
Q
(Q: 79.4 nM, P: 12.6 nM)

[P] C[C@@H](N[C@H]1CCN(c2ccc(P(=O)(O)O)cc2)C1)c1cccc2ccccc12
[Q] C[C@@H](N[C@H]1CCN(c2ccc(C(=O)NCCS(=O)(=O)O)cc2)C1)c1cccc2ccccc12
[R] C[C@@H](N[C@H]1CCN(c2ccc(C(=O)NCC[N+](C)(C)C)cc2)C1)c1cccc2ccccc12.[Cl-]
[S] C[C@@H](N[C@H]1CCN(c2ccc(S(=O)(=O)NCCn3cnc(C(=O)O)c3C(=O)O)cc2)C1)c1cccc2ccccc12
Would you mind ranking these compounds by ascending EC50? Labels, requested order.
S, Q, R, P
(S: 7.94 nM, Q: 39.8 nM, R: 126 nM, P: 3160 nM)

[I] C[C@@H](N[C@H]1CCN(c2ccc(S(=O)(=O)NCC(=O)O)cc2)C1)c1cccc2ccccc12
[II] C[C@@H](N[C@H]1CCN(c2ccc(S(=O)(=O)NC(=O)CC(=O)O)cc2)C1)c1cccc2ccccc12
[III] C[C@@H](N[C@H]1CCN(c2ccc(S(=O)(=O)NC(=O)CCC(=O)O)cc2)C1)c1cccc2ccccc12
[IV] C[C@@H](N[C@H]1CCN(c2ccc(C(=O)NCCNC(CO)(CO)CO)cc2)C1)c1cccc2ccccc12
[V] C[C@@H](N[C@H]1CCN(c2ccc(C(=O)O)cc2)C1)c1cccc2ccccc12
Could you please sort these 5 entries by EC50 from high to low? Labels, requested order.
II, III, V, I, IV
(II: 1580 nM, III: 501 nM, V: 158 nM, I: 39.8 nM, IV: 7.94 nM)

[a] C[C@@H](N[C@H]1CCN(c2ccc(C(=O)NC(CO)(CO)CO)cc2)C1)c1cccc2ccccc12
[b] C[C@@H](N[C@H]1CCN(c2ccc(C(=O)N[C@H](CCCCN)C(=O)O)cc2)C1)c1cccc2ccccc12
[c] C[C@@H](N[C@H]1CCN(c2ccc(S(N)(=O)=O)cc2)C1)c1cccc2ccccc12
[d] C[C@@H](N[C@H]1CCN(c2ccc(S(=O)(=O)NCCN(C)C)cc2)C1)c1cccc2ccccc12
Would you mind ranking these compounds by ascending EC50? Labels, requested order.
d, c, a, b

[I] C[C@@H](N[C@H]1CCN(c2ccc(C(=O)NCCn3cnc(C(=O)O)c3C(=O)O)cc2)C1)c1cccc2ccccc12
[II] C[C@@H](N[C@H]1CCN(c2ccc(C(=O)N[C@H](CC(=O)O)C(=O)O)cc2)C1)c1cccc2ccccc12
# returns the entry with the larger EC50; inputs I and II Please reply using the label of the selected record.
II

* * *

method: AUC in CD rat systemic circulation at 10 mg/kg, po administered via gavage
Type: ADME, organism-based
measured-property: AUC (ng·h/mL)
Give the quantity in ng·h/mL, number only.

In one line, give reported AUC of the entry C[C@@H](N[C@H]1CCN(c2ccc(C(=O)NCCCN3CCC(C(=O)O)CC3)cc2)C1)c1cccc2ccccc12 .
266

* * *

test-system: Extracellular calcium-sensing receptor (Homo sapiens)
method: Agonist activity at human CaSR expressed in HEK293 cells assessed as increase in intracellular calcium mobilization by fluo-4AM dye based FLIPR assay
Format: functional, cell-based
measured-property: %max (%)

molecule-smiles | %max [%]
C[C@@H](N[C@H]1CCN(c2ccc(S(=O)(=O)NC(=O)CC(=O)O)cc2)C1)c1cccc2ccccc12 | 79
C[C@@H](N[C@H]1CCN(c2ccc(C(=O)N[C@H](CC(=O)O)C(=O)O)cc2)C1)c1cccc2ccccc12 | 79
